Assay: Solubilisation of N-octanoyl dopamine by polysorbates
Type: physicochemical
Details: 0.5 wt.-% polysorbate 20 or polysorbate 80 solution, aqueous with cosolvent or surfactant or cyclodextrin; 0.5 wt.-% polysorbate 20 or polysorbate 80, individually; read-out: amount of N-octanoyl dopamine solubilised
Text: In one particular embodiment, the amount of amphiphilic excipient is at least about 0.05 wt.-%. According to a further embodiment, the amount is from about 0.1 wt.-% to about 30 wt.-%, or from about 0.5 wt.-% to about 20 wt.-%, respectively. […]
RESULT TYPE: solubility
# output: number + unit

Request the reported solubility associated with CCCCCCCC(=O)NCCc1ccc(O)c(O)c1 40 mM
